- EXPERIMENTAL_SYSTEM: human dopamine D3 receptors (Homo sapiens, UniProt P35462)
- Construct: expressed in transfected cells
- Sequence (P35462 whole entry): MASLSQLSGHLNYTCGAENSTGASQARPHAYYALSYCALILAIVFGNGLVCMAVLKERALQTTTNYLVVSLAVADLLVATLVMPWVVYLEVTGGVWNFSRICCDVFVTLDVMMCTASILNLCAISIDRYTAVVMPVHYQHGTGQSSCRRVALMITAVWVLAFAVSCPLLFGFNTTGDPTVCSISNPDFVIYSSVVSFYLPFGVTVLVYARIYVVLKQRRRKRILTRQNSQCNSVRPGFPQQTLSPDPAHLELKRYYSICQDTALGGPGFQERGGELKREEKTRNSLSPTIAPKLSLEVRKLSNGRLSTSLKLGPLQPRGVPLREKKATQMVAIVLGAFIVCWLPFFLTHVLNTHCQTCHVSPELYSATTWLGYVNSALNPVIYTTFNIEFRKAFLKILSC
- PROTOCOL_NOTES: Dopamine D3 receptor binding ([125I]-iodosulpride)
- CONDITION_SET: ratio of receptor binding constants, D2L versus D3
MEASURE: Ki(D2)/Ki(D3)

MOLECULE | Ki(D2)/Ki(D3)
CCCN1CC[C@@H](c2ccc(NS(=O)(=O)c3cccc(-c4csc(C)n4)c3)cc2)C1 [Example 99] | + (between 10 and 50)
CCCN1CC[C@@H](c2ccc(NS(=O)(=O)c3cccc(Br)c3)cc2)C1 [Example 70] | ++ (between 50 and 100)
CCCN1CC[C@@H](c2ccc(NS(=O)(=O)c3ccc(OC(F)(F)F)c(Br)c3)cc2)C1.Cl [Example 61] | ++ (between 50 and 100)
CCCN1C[C@@H](CF)[C@H](c2ccc(NS(=O)(=O)c3cccc(C(F)(F)F)c3)cc2)C1 (relative stereo) [Example 95] | + (between 10 and 50)
CCCN1CC[C@@H](c2ccc(NS(=O)(=O)c3cc(Cl)c(Cl)s3)cc2)C1.Cl [Example 74] | ++ (between 50 and 100)

Here's the next entry for you.
Form field: reported Ki(D2)/Ki(D3) of CCCN1CC[C@@H](c2ccc(NS(=O)(=O)c3ccc(F)c(C(F)(F)F)c3)cc2)C1 [Example 102]
++ (between 50 and 100)
